The following molecules are shown together with reported growth values.
- Tested on: PC-3 prostate
- method.notes: NCI-60 one-dose screen, 48 h (100 = growth as untreated, 0 = no growth, -100 = all killed)
- assay.setup: 10 µM unless noted
The panel holds about 83,000 compounds, 20% with a hit somewhere; the sample as a whole holds those more often. Calls of active or inactive are those of the source. The calls were made as follows: active = growth percent below 10; inactive = the rest.
observation.type: growth

[
  {
    "molecule": "COc1ccc(CCN2C(=O)CCC3=C2CCCC3=O)cc1OC",
    "endpoint.result": "96.6% (inactive)"
  },
  {
    "molecule": "Cc1cc(Br)c(C)cc1Br",
    "endpoint.result": "95.8% (inactive)"
  },
  {
    "molecule": "O=C1CNc2cc(Cl)ccc2N1",
    "endpoint.result": "104% (inactive)"
  },
  {
    "molecule": "O=c1ncc(-c2ccc(C(F)(F)F)cc2)c(NC2CCCCCC2)[nH]1",
    "endpoint.result": "25.7% (inactive)"
  },
  {
    "molecule": "CC(C)=CCCC(C)c1ccc(C)c2c1OCN(CC1CCNCC1)C2 (stereo unspecified)",
    "endpoint.result": "59.4% (inactive)"
  },
  {
    "molecule": "Cc1n(Cc2ccc3ccccc3c2)c2ccccc2[n+]1Cc1ccc2ccccc2c1",
    "endpoint.result": "-68.1% (active)"
  }
]

----------
- System: OVCAR-5 ovarian
- method.notes: NCI-60 one-dose screen, 48 h (100 = growth as untreated, 0 = no growth, -100 = all killed)
- assay.setup: 10 µM unless noted
The panel holds about 83,000 compounds, 20% with a hit somewhere; the sample as a whole holds those more often. The source made the active and inactive calls. The calls were made as follows: active = growth percent below 10; inactive = the rest.
In this section, each of the compounds is paired with its reported growth.
observation.type: growth

[
  {
    "compound": "N#Cc1ncc(-c2ccc(C(F)(F)F)cc2)c(NC2CCCCCC2)n1",
    "endpoint.result": "38.8% (inactive)"
  },
  {
    "compound": "O=C1C(=O)c2c(nc3ccc(Cl)cn23)-c2ccccc21",
    "endpoint.result": "-100% (active)"
  },
  {
    "compound": "CC(=O)N1N=C(c2ccc(Cl)cc2)CC1c1c(C)nn(-c2ccccc2)c1N(C)Cc1ccccc1 (configuration not stated)",
    "endpoint.result": "97.9% (inactive)"
  },
  {
    "compound": "O=C1Nc2ccc(Cl)cc2/C1=C/c1cccs1",
    "endpoint.result": "110% (inactive)"
  },
  {
    "compound": "O=C(NN1C(=O)c2cc(C(=O)O)c(C(=O)O)cc2C1=O)c1ccncc1",
    "endpoint.result": "107% (inactive)"
  },
  {
    "compound": "Nc1ccccc1C#Cc1ccccc1C#Cc1ccc(OCCCCCCOc2ccc(C#Cc3ccccc3C#Cc3ccccc3N)cc2)cc1",
    "endpoint.result": "90.7% (inactive)"
  },
  {
    "compound": "O=c1c2ccccc2c2nccn2c2cc(Cl)ccc12",
    "endpoint.result": "53.2% (inactive)"
  },
  {
    "compound": "Cc1csc(C#Cc2cncc(O)c2)n1",
    "endpoint.result": "90.9% (inactive)"
  },
  {
    "compound": "O=C(CSc1nnc(-c2cc(-c3ccccc3)nc3ccccc23)o1)c1ccc(Br)cc1",
    "endpoint.result": "104% (inactive)"
  },
  {
    "compound": "COc1ccc(-c2ccc(O)c(C(=O)/C=C/c3cc(OC)c(OC)c(OC)c3)c2)cc1",
    "endpoint.result": "106% (inactive)"
  },
  {
    "compound": "COc1cc(C2CC(c3ccc(C)cc3)=NN2C=O)ccc1OCCN(C)C (configuration not stated)",
    "endpoint.result": "94.3% (inactive)"
  },
  {
    "compound": "C#C[C@]1(O)CCC2C3CCc4cc(O)ccc4C3CC[C@@]21C (some centres not stated)",
    "endpoint.result": "78.1% (inactive)"
  },
  {
    "compound": "O=C(Nc1ccc(Cl)cc1)Nc1ccccc1CNc1nc(Nc2ccc(OCCN3CCCC3)cc2)ncc1Cl",
    "endpoint.result": "105% (inactive)"
  },
  {
    "compound": "Oc1c(N=Nc2nn[nH]n2)ccc2ccccc12",
    "endpoint.result": "97.3% (inactive)"
  },
  {
    "compound": "COc1cc(/C=C\\C(C)=N\\Nc2ccccc2)ccc1O",
    "endpoint.result": "84.7% (inactive)"
  },
  {
    "compound": "O=C(N/N=C/c1cccc([N+](=O)[O-])c1)c1ccc(Br)o1",
    "endpoint.result": "107% (inactive)"
  },
  {
    "compound": "COc1ccc(NC(=O)c2ccccc2-c2ccccc2)c(C(N)=O)c1",
    "endpoint.result": "88.3% (inactive)"
  },
  {
    "compound": "c1ccc(-c2oc(-c3ccccc3)c3ccccc23)cc1",
    "endpoint.result": "112% (inactive)"
  },
  {
    "compound": "CCSc1nc(-c2cccs2)n2nc(-c3ccco3)cc2n1",
    "endpoint.result": "97.3% (inactive)"
  },
  {
    "compound": "COc1ccc(Cl)cc1Nc1nc(C(F)(F)F)ccc1C(=O)N/N=C/c1c(Cl)cccc1Cl",
    "endpoint.result": "75.3% (inactive)"
  },
  {
    "compound": "COc1ccc2c(c1)sc1nc(-c3ccc(Br)cc3)cn12",
    "endpoint.result": "101% (inactive)"
  },
  {
    "compound": "O=C(CNC(=O)c1cccc2ccccc12)Nc1ccccc1Oc1ccc(O)cc1",
    "endpoint.result": "40.3% [5 µM] (inactive)"
  }
]

All values here come from PubChem BioAssay (NCI).
